MEASURED ON: Bcat-Halo (UniProt P35222)
Sequence (P35222 whole entry): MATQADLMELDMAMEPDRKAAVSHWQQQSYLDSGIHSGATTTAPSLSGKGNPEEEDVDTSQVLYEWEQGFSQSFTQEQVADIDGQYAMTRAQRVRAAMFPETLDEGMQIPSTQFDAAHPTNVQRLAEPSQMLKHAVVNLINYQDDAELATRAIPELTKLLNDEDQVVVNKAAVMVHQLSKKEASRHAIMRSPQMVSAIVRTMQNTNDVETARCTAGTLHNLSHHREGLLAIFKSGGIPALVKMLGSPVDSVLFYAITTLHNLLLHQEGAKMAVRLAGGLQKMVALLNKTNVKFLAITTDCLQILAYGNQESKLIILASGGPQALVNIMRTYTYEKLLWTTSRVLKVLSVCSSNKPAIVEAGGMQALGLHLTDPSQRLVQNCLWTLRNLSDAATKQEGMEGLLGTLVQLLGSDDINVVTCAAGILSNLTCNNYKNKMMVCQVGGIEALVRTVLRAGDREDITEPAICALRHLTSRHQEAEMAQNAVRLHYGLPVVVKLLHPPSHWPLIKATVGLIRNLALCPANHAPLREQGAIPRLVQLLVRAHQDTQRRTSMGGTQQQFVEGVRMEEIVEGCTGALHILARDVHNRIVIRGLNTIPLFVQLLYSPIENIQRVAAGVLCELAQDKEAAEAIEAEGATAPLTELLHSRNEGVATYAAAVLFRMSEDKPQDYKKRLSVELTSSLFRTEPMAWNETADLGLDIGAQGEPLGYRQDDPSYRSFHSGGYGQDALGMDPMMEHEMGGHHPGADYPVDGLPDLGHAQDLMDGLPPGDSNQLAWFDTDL
ASSAY COMMENT: NanoBRET (Abs IC50) in HEK293 cells; Bcat-Halo / TCF4-Luc
Starred links: 1 amine or outer side, 2 acyl side, 3 side chain; linkers in the order of their positions; H or OH if unused. Positions of bridges follow the written chain, without caps; N, C: chain ends. Non-standard residues stand in square brackets, D forms with d. Primed or numbered codes have the meaning given here. PyrS2″ = (S)-3-amino-1-((pent-4-en-1-yloxy)carbonyl)pyrrolidine-3-carboxylic acid (stapling residue), C=CCCCOC(=O)N1CC[C@@](N[*:1])(C(=O)[*:2])C1; B5(5) = 2,2-bis(4-pentenyl)glycine, 2-amino-2-(pent-4-en-1-yl)hept-6-enoic acid (stitching residue), C=CCCCC(CCCC=C)(N[*:1])C(=O)[*:2]; Phe(3-COOH) = N[C@@H](Cc1cccc(C(=O)O)c1)C(=O)O; Phe(2-Cl) = N[C@@H](Cc1ccccc1Cl)C(=O)O; Bta = N[C@@H](Cc1csc2ccccc12)C(=O)O; αAllylPro = C=CC[C@@]1(C(=O)O)CCCN1; tBuAla = CC(C)(C)C[C@H](N)C(=O)O
The entries below come with measured pIC50 values attached.
Note on units: pIC50 is unitless, being -log10 of a concentration expressed in mol/L.

Recorded pIC50, per entry:
Ac-[αAllylPro]D[tBuAla][B5(5)]D[Phe(3-COOH)]AAFS[PyrS2″][Phe(2-Cl)][Bta]F-NH2 (staple 1-4, 4-11) [I-2029] :: 4.58
Ac-[αAllylPro]D[tBuAla][B5(5)]D[Phe(3-COOH)]AAFA[PyrS2″][Phe(2-Cl)][Bta]V-NH2 (staple 1-4, 4-11) [I-2024] :: 4.75
Ac-[αAllylPro]D[tBuAla][B5(5)]D[Phe(3-COOH)]AAFA[PyrS2″][Phe(2-Cl)][Bta]A-NH2 (staple 1-4, 4-11) [I-2023] :: 5.11

Next item in the queue.
Query :: What does the record list as pIC50 for Ac-[αAllylPro]D[tBuAla][B5(5)]D[Phe(3-COOH)]AAFA[PyrS2″][Phe(2-Cl)][Bta][dA]-NH2 (staple 1-4, 4-11) [I-2026] ?
Result :: 5.01
